measurement-description: in vivo
experimental-setup: Plasma Conc.
quantity-measured: concentration at 1 h (nM)

{"columns": ["line-notation", "unit-symbol", "recorded-measurement"],
 "data": [
  ["O=C(O)c1ccccc1C(=O)Nc1ccc(-c2ccccc2)cc1", "nM", 102]
]}

----------
measurement-description: in vivo
experimental-setup: Plasma Conc.

{"columns": ["line-notation", "unit-symbol", "concentration at 7 h"],
 "data": [
  ["O=C(O)c1ccccc1C(=O)Nc1ccc(-c2ccccc2)cc1", "nM", 11.8]
]}

----------
System: human mesenchymal stem cells (hMSCs)
measurement-description: chondrogenic nodule formation by hMSCs (high throughput screen)
Assay type: cell-based
experimental-setup: Homo sapiens, Mesenchymal stem cells; first value of the cell (before the slash); read-out: CHONDROGENIC μM EC50
# EC50 values compiled below

{"columns": ["molecule", "system-name", "unit-symbol", "modifier-sign", "EC50"],
 "data": [
  ["O=C(O)c1ccccc1C(=O)Nc1ccc([N+](=O)[O-])cn1 [LK59]", "human mesenchymal stem cells (hMSCs)", "µM", "=", 0.371],
  ["Cc1cncc(NC(=O)c2ccccc2C(=O)O)c1 [Compound L5]", "human mesenchymal stem cells (hMSCs)", "µM", "=", 0.6],
  ["C[C@@H](C(=O)Nc1ccc(Cl)cn1)N1Cc2ccccc2C1=O [SMA-1*]", "human mesenchymal stem cells (hMSCs)", "µM", ">", 10],
  ["O=C(O)c1ccccc1C(=O)Nc1ccc(N2CCOCC2)cc1 [LK6]", "human mesenchymal stem cells (hMSCs)", "µM", "=", 9.1],
  ["O=C(O)c1ccc(NC(=O)c2ccccc2C(=O)O)cc1Cl [LK63]", "human mesenchymal stem cells (hMSCs)", "µM", "=", 0.126],
  ["N#CCc1ccc(NC(=O)c2ccccc2C(=O)O)cc1 [Compound L13]", "human mesenchymal stem cells (hMSCs)", "µM", ">", 10],
  ["O=C(O)c1ccccc1C(=O)Nc1ccc(Nc2ccccc2)cc1 [LK7]", "human mesenchymal stem cells (hMSCs)", "µM", ">", 10],
  ["COc1ccc(NC(=O)c2ccccc2C(=O)O)cc1 [Compound L2]", "human mesenchymal stem cells (hMSCs)", "µM", ">", 10],
  ["CNC(=O)c1ccccc1C(=O)O [AKT-NHMe]", "human mesenchymal stem cells (hMSCs)", "µM", "=", 2.7],
  ["O=C(O)c1cc(S(=O)(=O)c2ccc(C(=O)Nc3ccc(-c4ccccc4)cc3)c(C(=O)O)c2)ccc1C(=O)Nc1ccc(-c2ccccc2)cc1 [LK4]", "human mesenchymal stem cells (hMSCs)", "µM", "=", 3.8]
]}
